Kindly supply the reported OD490 values for the records listed here.
TGT: T1, M1
T1 construct: also called PD1 mutant M1
ASSAY: scFv-phage ELISA
Numbers only.

# example entries with known answers
BINDER: PD1-49A2 (antibody, V domains shown, scFv-phage in the screening ELISA; whole IgG in the other assays; also called Parent 49A2) VH: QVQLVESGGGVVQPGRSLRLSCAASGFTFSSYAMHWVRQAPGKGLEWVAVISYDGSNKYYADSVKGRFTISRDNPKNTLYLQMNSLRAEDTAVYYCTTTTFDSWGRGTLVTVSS VL: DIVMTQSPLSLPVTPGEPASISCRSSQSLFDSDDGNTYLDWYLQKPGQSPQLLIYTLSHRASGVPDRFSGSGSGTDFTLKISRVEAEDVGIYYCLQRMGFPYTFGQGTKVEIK
ENDPOINT RESULT: 3
//
BINDER: PD1-41C9 (antibody, V domains shown, scFv-phage in the screening ELISA; whole IgG in the other assays) VH: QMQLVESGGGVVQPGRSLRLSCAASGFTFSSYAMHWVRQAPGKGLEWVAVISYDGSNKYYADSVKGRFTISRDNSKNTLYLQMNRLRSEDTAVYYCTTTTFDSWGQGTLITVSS VL: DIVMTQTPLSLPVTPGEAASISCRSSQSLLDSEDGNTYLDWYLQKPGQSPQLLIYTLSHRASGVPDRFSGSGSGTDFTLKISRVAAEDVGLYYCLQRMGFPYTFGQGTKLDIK
ENDPOINT RESULT: 3.2

Next item in the queue.
IN: Please give the measured OD490 for this binder: PD1-29H3 (antibody, V domains shown, scFv-phage in the screening ELISA; later whole IgG) VH: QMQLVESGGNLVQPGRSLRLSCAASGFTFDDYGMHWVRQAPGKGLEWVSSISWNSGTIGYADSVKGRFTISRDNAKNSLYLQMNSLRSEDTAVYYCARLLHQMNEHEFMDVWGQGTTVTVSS VL: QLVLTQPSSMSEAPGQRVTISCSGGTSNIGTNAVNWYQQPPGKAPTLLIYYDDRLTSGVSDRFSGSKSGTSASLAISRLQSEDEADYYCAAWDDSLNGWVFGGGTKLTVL
OUT: 1.5
